Assign IC50 to each entry below.
EXPERIMENTAL_SYSTEM: Genome polyprotein (dengue virus type 2)
Format: functional, Thailand/16681/1984

Tell me the measured IC50 of O=C(NCC1CCNCC1)c1cc(Cl)cc2[nH]ncc12 , please. > 99.5 µM

Also check O=C(Nc1ccc2c(c1)CNC2)c1nccc2[nH]ncc12 > 99.5 µM

Also check NCc1cccc(NC(=O)CN2CCN(C(=O)OCc3ccccc3)CC2)c1 > 99.5 µM

====

EXPERIMENTAL_SYSTEM: Genome polyprotein (dengue virus type 2, UniProt P29990)
Sequence (P29990 1346-1475 limits assumed): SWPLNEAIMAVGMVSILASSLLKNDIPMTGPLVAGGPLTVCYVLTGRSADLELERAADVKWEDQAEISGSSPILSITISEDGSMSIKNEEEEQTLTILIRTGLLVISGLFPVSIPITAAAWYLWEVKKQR
Sequence (P29990 1476-2093 limits assumed): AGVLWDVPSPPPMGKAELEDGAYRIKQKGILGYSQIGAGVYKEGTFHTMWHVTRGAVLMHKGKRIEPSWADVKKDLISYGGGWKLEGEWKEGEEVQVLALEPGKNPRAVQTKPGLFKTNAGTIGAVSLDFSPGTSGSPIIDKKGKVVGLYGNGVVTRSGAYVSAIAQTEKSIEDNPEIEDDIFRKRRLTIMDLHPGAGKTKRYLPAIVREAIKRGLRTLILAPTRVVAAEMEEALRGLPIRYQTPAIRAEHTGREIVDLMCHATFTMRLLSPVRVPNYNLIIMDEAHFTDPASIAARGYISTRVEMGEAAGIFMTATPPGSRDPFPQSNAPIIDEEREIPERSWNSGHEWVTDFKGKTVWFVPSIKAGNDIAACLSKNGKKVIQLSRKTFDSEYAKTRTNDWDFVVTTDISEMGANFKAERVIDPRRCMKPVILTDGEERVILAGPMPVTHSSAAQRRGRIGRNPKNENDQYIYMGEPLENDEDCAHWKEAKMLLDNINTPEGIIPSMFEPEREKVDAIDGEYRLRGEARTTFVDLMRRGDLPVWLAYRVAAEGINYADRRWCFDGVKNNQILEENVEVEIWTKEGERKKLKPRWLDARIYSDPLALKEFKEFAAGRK
Type: functional, Thailand/16681/1984
Assign IC50 to each entry below.

Tell me the measured IC50 of CCn1c(=O)c(N2CC[C@@H](CO)C2)nc2ccc(C(=O)O)cc21 , please. > 99.5 µM

Also check O=C(O)c1cc(Cl)ccc1S(=O)(=O)N[C@H]1CCn2c(nnc2C(F)(F)F)C1 > 99.5 µM

Also check C[C@@H](O)CNC(=O)c1cc(Cl)ccc1NS(=O)(=O)c1ccc(Oc2ccccc2Cl)cc1 56.6 µM

Also check CC1([C@H]2CCCN(C(=O)Nc3ccc4c(c3)CNC4)C2)CC1 > 99.5 µM

Also check O=C(O)Cc1cc2c(c(Cc3c[nH]c4ccc(Cl)cc34)c1)OCC2 > 99.5 µM

Also check NCc1ccncc1NS(=O)(=O)c1ccc(Oc2ccccc2Cl)cc1 37.1 µM

Also check CCn1c(=O)c(N2C[C@H]3CCS(=O)(=O)[C@H]3C2)nc2ccccc21 > 99.5 µM

Also check O=C(Nc1cc(Cl)cc(C(=O)Nc2ccc([C@H]3CCCNC3)cc2)c1)OCc1ccccc1 68.4 µM

====

EXPERIMENTAL_SYSTEM: UniProt P29990
Format: functional, Thailand/16681/1984
Assign IC50 to each entry below.

Tell me the measured IC50 of Cc1cnccc1-c1cc(NC(=O)c2cc(F)cc3[nH]ncc23)cc2c1CNC2 , please. 65.4 µM

Also check NCc1cccc(NC(=O)[C@H]2CCOC3(CCC3)C2)c1 > 100 µM

Also check NCc1ccc(NC(=O)c2cc(Cl)cc3[nH]ncc23)cc1F > 100 µM

Also check CNC(=O)[C@H](Nc1ccc2c(c1)CNC2)c1cc(Cl)cc(C2CC2)c1 > 100 µM

Also check CN(C)c1nc(-c2cc(F)cc(C(=O)Nc3ccc4c(c3)CNC4)c2)cs1 > 100 µM

Also check O=C1CN(C(=O)Nc2ccc3c(c2)CNC3)[C@H]2CCCC[C@H]2N1 > 100 µM

Also check O=C1COc2c(cccc2N2CCN(Cc3c[nH]c4ccccc34)CC2)N1 > 100 µM

Also check N[C@H]1CC[C@H](c2ccc(NC(=O)c3cc(Cl)cc(NC(=O)OCc4ccccc4)c3)cc2)C1 84.2 µM

Also check CCNC(=O)Nc1cc(Cl)cc(C(=O)Nc2cc(CCCN)ccc2F)c1 > 100 µM

Also check O=C(Nc1ccc2c(c1)CNC2)N1CCC2(C1)CC(F)(F)C2 > 100 µM

Also check CNC(=O)[C@H](Nc1cccc(N)n1)c1cc(Cl)cc(CN)c1 > 100 µM

Also check NCc1cc(NC(=O)c2cc(Cl)cc(NC(=O)OCc3ccccc3)c2)cc(-c2cccc(CC(=O)O)c2)c1 > 100 µM

====

EXPERIMENTAL_SYSTEM: Genome polyprotein (dengue virus type 2)
Assay type: functional, Thailand/16681/1984
METRIC_NAME: IC50

Tell me the measured IC50 of COc1n[nH]cc1CN1CCC(c2nc3ccccc3s2)CC1 , please. > 99.5 µM

Also check O=C1CN(Cc2c[nH]c3ccccc23)CCN1c1cccnc1 > 99.5 µM

Also check COC(=O)c1cc(NC(=O)c2cc(Cl)cc(NC(=O)OCc3ccccc3)c2)cc(-c2nnn[nH]2)c1 6.17 µM

Also check NCc1cccc(NC(=O)c2cc(Cl)ccc2NS(=O)(=O)c2ccc(Oc3ccccc3Cl)cc2)c1 > 99.5 µM

Also check C=CC[C@H]1NCc2cc(N[C@H](C(=O)NC(C)C)c3cccc4[nH]ncc34)ccc21 > 99.5 µM

====

EXPERIMENTAL_SYSTEM: Genome polyprotein (dengue virus type 2, UniProt P29990)
Format: functional, Thailand/16681/1984
METRIC_NAME: IC50

Tell me the measured IC50 of Cc1ccc(OCc2ccccc2Cl)c(C(=O)Nc2cccc(CN)c2)c1 , please. 99.5 µM

Also check O=C(Nc1ccc2c(c1)CNC2)c1cc(F)cc(/C=C/c2ccccc2)c1 42.1 µM

Also check COc1cc(Cl)cc(C(=O)O)c1NS(=O)(=O)c1ccc(Oc2ccccc2Cl)cc1 22.6 µM

Also check COc1ccc(CN(C)C)cc1NC(=O)[C@@H](NC(=O)OCc1ccccc1)c1ccc(OCc2ccccc2)cc1 > 99.5 µM

Also check CC1CCN(CC[C@H]2CCCN2C(=O)Nc2ccc3c(c2)CNC3)CC1 > 99.5 µM

Also check O=C(Nc1cc(-c2cccnc2)ccn1)c1cc2n(n1)CC1(CC1)C2 > 99.5 µM

Also check NS(=O)(=O)c1ccc(N2CCC=C(c3cccc(O)c3)C2)c2ncccc12 > 99.5 µM

Also check c1ccc(N2CCN(Cc3c[nH]c4ccccc34)CC2)nc1 > 99.5 µM

Also check c1ccc2nc(SCc3cn4ccccc4n3)cnc2c1 > 99.5 µM

Also check N#CCc1cc(NC(=O)c2cc(F)cc3[nH]ncc23)cc2c1CNC2 23.5 µM

Also check CSc1cc(Cl)cc(C(=O)Nc2cccc(-n3nn[nH]c3=O)c2)c1 > 99.5 µM

Also check N#C[C@H](Nc1ccc(-c2nn[nH]n2)cc1)c1cc(Cl)cc(NC(=O)OCc2ccccc2)c1 10.7 µM

Also check Cc1c(C(=O)Nc2cc(Br)c3c(c2)COC3)cc(C2CC2)n1C > 99.5 µM

Also check O=C(Cc1cccc2[nH]ncc12)Nc1ccc2c(c1)CNC2 > 99.5 µM

====

Assign pIC50 to each entry below.
EXPERIMENTAL_SYSTEM: Genome polyprotein (dengue virus type 2, UniProt P29990)
Type: functional, Thailand/16681/1984
pIC50: −log10 of the molar value.

Tell me the measured pIC50 of O=S(=O)(Nc1cccc(-c2nnn[nH]2)c1)c1cc(F)cc(Cl)c1 , please. < 4.00

Also check C=CC[C@H](Nc1cccc(CN)n1)c1cc(Cl)cc(NC(=O)OCc2ccccc2)c1 < 4.00

Also check CC(C)(C)OC(=O)N1Cc2cc(NC(=O)c3cc(Cl)cc4c3cnn4[C@@H]3CCCCO3)ccc2[C@H]1CO < 4.00

Also check O=C(Nc1ccc2c(c1)CNC2)c1n[nH]c2ncc(Br)cc12 < 4.00

Also check C[C@@H](NC(=O)c1cc(Cl)ccc1NS(=O)(=O)c1ccc(Oc2ccccc2Cl)cc1)C(=O)O < 4.00

Also check NCc1cccc(NC(=O)[C@H](NC(=O)C2CCC2)c2ccc(OCc3ccccc3)cc2)c1 < 4.00

Also check N#Cc1c[nH]c2ccc(C(=O)Nc3ccc4c(c3)CNC4)cc12 < 4.00

Also check CN(C)C(=O)Nc1cccc([C@@H]2C[C@H]2c2cc(Cl)cc(NC(=O)OCc3ccccc3)c2)c1 < 4.00

Also check NCc1cccc(N2CCN(C(=O)OCc3ccccc3)[C@H](c3ccc(OCc4ccccc4)cc3)C2=O)c1 4.13

Also check O=C(O)c1cc(Cl)ccc1NS(=O)(=O)c1ccc(-c2cn[nH]c2)cc1 < 4.00

Also check CCn1cc(-c2cccc(-c3ccccc3)c2)nc(N2CC[C@@H](CO)C2)c1=O < 4.00

Also check O=C(Nc1cc(-c2cccnc2)ccn1)c1coc(C2CC2)n1 < 4.00

Also check Cc1c(C(=O)Nc2cc(-c3cccnc3)ccn2)cc(C(C)(C)C)n1C < 4.00

Also check O=C(Nc1ccc2c(c1)CN[C@H]2CC1CC1)c1cc(F)cc2[nH]ncc12 4.42

Also check NCc1cccc(NC(=O)[C@@H](N)c2ccc(OCc3ccccc3)cc2)c1 < 4.00

Also check CS(=O)(=O)c1cc(CN)cc([C@@H]2C[C@H]2c2cc(Cl)cc(NC(=O)OCc3ccccc3)c2)c1 < 4.00

Also check N#Cc1cc(-c2ccc3[nH]c(C(=O)O)cc3c2)cc(N2CCCC2)c1 4.20

Also check NCc1cc(NC(=O)c2cc(Cl)cc(NC(=O)OCc3ccccc3)c2)cc(-c2ccc(OCC(=O)O)nc2)c1 < 4.00

Also check NCCNC(=O)c1cc(Cl)cc(NC(=O)OCc2ccccc2)c1 < 4.00

====

Assign pIC50 to each entry below.
EXPERIMENTAL_SYSTEM: Genome polyprotein (dengue virus type 2, UniProt P29990)
Type: functional, Thailand/16681/1984
pIC50: −log10 of the molar value.

Look up pIC50 with Genome polyprotein (dengue virus type 2, UniProt P29990) for this compound: CNC(=O)[C@H](Nc1cc(CN)cc(C(=O)O)c1)c1cc(Cl)cc(C2CC2)c1 < 4.00

Also check C=CC[C@H](Nc1cc(Cl)cc(NC(=O)OCc2ccccc2)c1)c1ccc(-c2nn[nH]n2)cc1 5.15

Also check O=C(O)c1cc(Cl)ccc1S(=O)(=O)N[C@H]1CC[C@H](Oc2cnccn2)CC1 < 4.00

Also check Cn1ncc2c(C(=O)Nc3ccc4c(c3)CNC4)cc(-c3cccnc3)nc21 4.03

Also check NCc1cccc(NC(=O)[C@H]2[C@@H]3CC[C@@H](C3)[C@H]2NC(=O)OCc2ccccc2)c1 < 4.00

Also check CC(C)CNC(=O)c1cc(Cl)c(F)cc1NS(=O)(=O)c1ccc(Oc2ccccc2Cl)cc1 5.21

Also check COC(=O)N1CCc2cc(NC(=O)c3cc(C4CC4)n(C)c3C)ccc21 < 4.00

Also check COc1ncc(C(=O)Nc2cccc(CN)c2)cc1NC(=O)OCc1ccccc1 < 4.00

Also check c1ccc2c(CN[C@H]3CCc4ncsc4C3)n[nH]c2c1 < 4.00

Also check O=C(Nc1cc(Cl)cc(C(=O)Nc2ccc(S(=O)(=O)N3CCNCC3)cc2)c1)OCc1ccccc1 < 4.00

Data credit: ChEMBL document CHEMBL5604063
